experiment: Metabolic stability in human liver microsomes assessed as compound remaining at 0.1 uM measured at 30 mins by LC-MS/MS analysis; type: ADME; details: read-out: Stability
Property name: remaining at 0.5 h, 0.1 µM (%)
Dear colleague, please return just the value in %, with no unit written.

**Q:** # lookup: remaining at 0.5 h, 0.1 µM of Cc1cc(NCc2ncnn2C)n2nc(C)c(-c3ccccc3)c2n1
**A:** 99.5

**Q:** Record request: remaining at 0.5 h, 0.1 µM value, item Cc1cc(NCc2ccc(F)cn2)n2nc(C)c(-c3ccccc3)c2n1
**A:** 31.4

**Q:** Query: remaining at 0.5 h, 0.1 µM; subject: Cc1cc(NCc2ccccn2)n2nc(C)c(-c3cccnc3F)c2n1
**A:** 100

**Q:** Requested field: remaining at 0.5 h, 0.1 µM. Item: Cc1cc(NCc2ccccn2)n2ncc(-c3cccc(N(C)C)c3)c2n1
**A:** 33.7

**Q:** Request the reported remaining at 0.5 h, 0.1 µM associated with Cc1cc(NCc2ccccn2)n2ncc(-c3cccc(N)c3)c2n1
**A:** 89.5

**Q:** Sample Cc1cc(NCc2ccccn2)n2ncc(-c3ccc(O)cc3)c2n1 — what was its remaining at 0.5 h, 0.1 µM?
**A:** 99.3

**Q:** Requested read-out: remaining at 0.5 h, 0.1 µM. Entry: Cc1cc(NCc2nccn2C)n2nc(C)cc2n1
**A:** 100

**Q:** Which remaining at 0.5 h, 0.1 µM reading was recorded for the compound Cc1cc(NCc2ccccn2)n2nc(C)c(-c3ccccc3)c2n1 ?
**A:** 51.9

**Q:** What does the data say about its remaining at 0.5 h, 0.1 µM? Entry: CCN1CCCC1CNc1cc(C)nc2c(-c3ccccc3)c(C)nn12 (stereo unspecified)
**A:** 54

**Q:** Dear colleague, I am looking for the recorded remaining at 0.5 h, 0.1 µM of the following compound: Cc1cc(NCC2CCCCN2)n2nc(C)c(-c3ccccc3)c2n1 (stereo unspecified)
**A:** 51.8

**Q:** Quick one: remaining at 0.5 h, 0.1 µM of Cc1cc(NCc2cccc[n+]2[O-])n2ncc(-c3ccccc3)c2n1 ?
**A:** 99.7

---

assay: Metabolic stability in rat liver microsomes assessed as compound remaining at 0.1 uM measured at 30 mins by LC-MS/MS analysis; format: ADME; settings: read-out: Stability
Provide the recorded remaining at 0.5 h, 0.1 µM for the entries that follow.
State the answer as a number, implicitly in %.

**Q:** Item under review: Cc1cc(NCC2CCCCN2)n2nc(C)c(-c3ccccc3)c2n1 (stereo not given) . Reported remaining at 0.5 h, 0.1 µM?
**A:** 5.1

**Q:** remaining at 0.5 h, 0.1 µM lookup needed for Cc1cc(NCc2ccccn2)n2nc(C)c(-c3cccnc3F)c2n1 , thanks.
**A:** 96.5

**Q:** I am curious: what remaining at 0.5 h, 0.1 µM value has been reported for Cc1cc(NCc2ccccn2)n2nc(C)c(-c3ccccc3)c2n1 ?
**A:** 39

**Q:** Fill in the blank: the reported remaining at 0.5 h, 0.1 µM of Cc1cc(NCc2ccccn2)n2ncc(-c3cccc(N(C)C)c3)c2n1 is ____.
**A:** 4.5

**Q:** Quick one: remaining at 0.5 h, 0.1 µM of Cc1cc(NCc2cccc[n+]2[O-])n2ncc(-c3ccccc3)c2n1 ?
**A:** 61.2

**Q:** Field request: remaining at 0.5 h, 0.1 µM | item: Cc1cc(NCc2ccccn2)n2ncc(-c3ccc(O)cc3)c2n1
**A:** 60.1

**Q:** Form field: reported remaining at 0.5 h, 0.1 µM of Cc1cc(NCc2nccn2C)n2nc(C)cc2n1
**A:** 80.6

**Q:** What value of measured remaining at 0.5 h, 0.1 µM is listed for Cc1cc(NCc2ncnn2C)n2nc(C)c(-c3ccccc3)c2n1 ?
**A:** 68.8

**Q:** Requested read-out: remaining at 0.5 h, 0.1 µM. Entry: Cc1cc(NCc2ccc(F)cn2)n2nc(C)c(-c3ccccc3)c2n1
**A:** 45.5

**Q:** Bench note: what remaining at 0.5 h, 0.1 µM did Cc1cc(NCc2ccccn2)n2ncc(-c3cccc(N)c3)c2n1 show?
**A:** 56.8

---

test: Metabolic stability in mouse liver microsomes assessed as compound remaining at 0.1 uM measured at 30 mins by LC-MS/MS analysis; assay type: ADME; details: read-out: Stability
Property name: remaining at 0.5 h, 0.1 µM (%)
Answer format: numeric, % implied, no suffix.

**Q:** Form field: reported remaining at 0.5 h, 0.1 µM of Cc1cc(NCc2cccc[n+]2[O-])n2ncc(-c3ccccc3)c2n1
**A:** 12.3

**Q:** I have this compound here, Cc1cc(NCc2ccccn2)n2ncc(-c3cccc(N(C)C)c3)c2n1 , and I need its recorded remaining at 0.5 h, 0.1 µM.
**A:** 7.9

**Q:** Looking for the measured remaining at 0.5 h, 0.1 µM of Cc1cc(NCc2ccccn2)n2ncc(-c3ccc(O)cc3)c2n1 , can you help?
**A:** 41.4

**Q:** Which value of remaining at 0.5 h, 0.1 µM has been reported for Cc1cc(NCc2ccccn2)n2nc(C)c(-c3ccccc3)c2n1 in the records?
**A:** 6.2

**Q:** Param item = Cc1cc(NCc2nccn2C)n2nc(C)cc2n1 ; retrieve measured remaining at 0.5 h, 0.1 µM.
**A:** 85.1

**Q:** Sample Cc1cc(NCc2ccccn2)n2ncc(-c3cccc(N)c3)c2n1 — what was its remaining at 0.5 h, 0.1 µM?
**A:** 55.1

---

Consider the following compounds; for each one, report its MIC99.
system: Mycobacterium tuberculosis; test: Antimycobacterial activity against Mycobacterium tuberculosis H37Rv in 7H9/ADC/Tween medium measured at day 14 by Alamar Blue assay; format: functional; conditions: 336 h
Give the value in µM but do not write µM after it.

**Q:** So what does the record say about MIC99 for Cc1cc(NCc2ccccn2)n2ncc(C3=CCC(F)(F)CC3)c2n1 ?
**A:** 5

**Q:** What does the record list as MIC99 for Cc1cc(NCc2ccccn2)n2ncc(-c3ccc(F)c(Cl)c3)c2n1 ?
**A:** 1.25

**Q:** For the compound Cc1cc(NCc2ccccn2)n2ncc(-c3ccc(Cl)cc3)c2n1 , what MIC99 is on record?
**A:** 10

**Q:** Need MIC99, item Cc1cc(NCc2ccccn2)n2ncc(-c3ccccc3)c2n1
**A:** 10

**Q:** Find the recorded MIC99 belonging to CO[C@H]1/C=C/O[C@@]2(C)Oc3c(C)c(O)c4c(O)c(c(/C=N/N5CCN(C)CC5)c(O)c4c3C2=O)NC(=O)/C(C)=C\C=C\[C@H](C)[C@H](O)[C@@H](C)[C@@H](O)[C@@H](C)[C@H](OC(C)=O)[C@@H]1C and report it.
**A:** 0.012

**Q:** Sample Cc1cc(NCc2ccccn2)n2nc(C)c(-c3ccc(F)cc3)c2n1 — what was its MIC99?
**A:** 5

**Q:** Please look up its MIC99: Cc1cc(NCc2ccccn2)n2ncc(-c3cc(F)c(F)c(F)c3)c2n1
**A:** 2.5

**Q:** What does the data say about its MIC99? Entry: Cc1cc(NCc2ncccn2)n2nc(C)c(-c3ccccc3)c2n1
**A:** 80

**Q:** What does the data say about its MIC99? Entry: Cc1cc(NCc2ccccn2)n2ncc(-c3cccc(N(C)C)c3)c2n1
**A:** 80

**Q:** For the compound shown here, COc1ccc(-c2c(C)nn3c(NCc4ccccn4)cc(C)nc23)cc1 , give the reported MIC99.
**A:** 20

**Q:** What does the record list as MIC99 for Cc1cc(NCc2ccccn2)n2ncc(-c3cccc(F)c3)c2n1 ?
**A:** 2.5

**Q:** Sample Cc1cc(NCc2ccccn2)n2nc(C)c(Nc3ccccc3)c2n1 — what was its MIC99?
**A:** 40

---

system: Mycobacterium tuberculosis; assay: Antimycobacterial activity against Mycobacterium tuberculosis H37Rv in GAST-Fe medium measured at day 14 by Alamar Blue assay; assay type: functional; settings: 336 h
Consider the following compounds; for each one, report its MIC99.

**Q:** Suppose we examine the compound Cc1cc(NCc2ccccn2)n2ncc(-c3ccccc3F)c2n1 ; what MIC99 value has been reported?
**A:** > 160 µM

**Q:** Requested field: MIC99. Item: Cc1cc(NCc2ccccn2)n2ncc(-c3ccc(F)c(Cl)c3)c2n1
**A:** > 160 µM

**Q:** May I ask what MIC99 has been recorded for Cc1cc(NCc2ccccn2)n2ncc(-c3cccc(Cl)c3)c2n1 ?
**A:** > 160 µM

**Q:** Give the measured MIC99 of Cc1cc(NCc2ccc(F)cn2)n2nc(C)c(-c3ccccc3)c2n1 .
**A:** 20 µM

**Q:** Look up MIC99 for this compound: Cc1cc(NCc2nccn2C)n2nc(C)c(-c3ccccc3)c2n1
**A:** 37 µM

**Q:** Any idea what MIC99 was measured for Cc1cc(NCc2ccccn2)n2nc(C)c(-c3ccccc3)c2n1 ?
**A:** > 160 µM

Entry source: ChEMBL document CHEMBL3627697
